Numbers sourced from paper PMC2756588.

Please respond with reported SPOT intensity for every item in the list.
Target: T1, Fus1, P11710
T1 sequence (P11710 432-512, looked up): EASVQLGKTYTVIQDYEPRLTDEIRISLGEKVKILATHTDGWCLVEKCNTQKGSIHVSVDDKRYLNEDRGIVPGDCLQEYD
Assay: SPOT array
Settings: median of control spots 1200
API doc: respond with a numeric literal and nothing else, no unit.

# SPOT intensity (binder: ITHRLRISIPGITGR ) is 39

# SPOT intensity (binder: QRIRKIPGIPLMSVG ) is 6

# SPOT intensity (binder: NLDRSKISLPDFDDE ) is 4

# SPOT intensity (binder: FPPKRKPLLRPQRSD ) is 6
